system: SH-SY5Y (human neuroblastoma) cell line; assay: xCELLigence Real Time Cell Analysis (RTCA) of cell viability/proliferation; settings: 48 h, RTCA
measurement_kind: concentration up to which no cytotoxicity was observed (cell index)

### Prompt Missing value: concentration up to which no cytotoxicity was observed (cell index), SH-SY5Y (human neuroblastoma) cell line, entry Nc1nc2[nH]cc(CN[C@H]3C=C[C@H](O)[C@@H]3O)c2c(=O)[nH]1 . Fill in?
### Response ≤ 1.25 µM

### Prompt Under SH-SY5Y (human neuroblastoma) cell line: concentration up to which no cytotoxicity was observed (cell index) value of Cc1ncc(C[n+]2csc(CCO)c2C)c(N)n1 ?
### Response ≤ 4800 µM

### Prompt Look up concentration up to which no cytotoxicity was observed (cell index) with SH-SY5Y (human neuroblastoma) cell line for this compound: CCc1nn(CCCN2CCN(c3cccc(Cl)c3)CC2)c(=O)n1CC
### Response ≤ 70 µM

### Prompt Reported concentration up to which no cytotoxicity was observed (cell index) for SH-SY5Y (human neuroblastoma) cell line, given COc1ccc2c3c1O[C@H]1C[C@@H](O)C=C[C@@]31CCN(C)C2 ?
### Response ≤ 10 µM

---

tested on: SH-SY5Y (human neuroblastoma) cell line; test: xCELLigence Real Time Cell Analysis (RTCA) of cell viability/proliferation; details: Homo sapiens, 48 h, read-out: IC50 ± SEM
measurement_kind: pIC50
# log scale: pIC50 equals minus log10 of the concentration in mol/L

### Prompt GET /values?readout=pIC50&item= Cc1ncc(C[n+]2csc(CCO)c2C)c(N)n1 [Thiamine]
### Response 1.73
